# inhibition of growth at 10 µM annotations
Test system: OVCAR-5
Test: Cytotoxicity against Homo sapiens (human) OVCAR5 cells assessed as growth inhibition at 10 uM after 48 hr by coulter counter analysis
Format: functional
Details: OVCAR-5, 48 h, read-out: GI
readoutType: inhibition of growth at 10 µM

O=C(CSc1nc2ccccc2c(=O)n1CCc1ccccc1)c1ccc(F)cc1: < 10%
O=C(CSc1nc2ccccc2c(=O)n1CCc1ccccc1)c1ccccc1: < 10%
O=c1c2ccccc2nc(SCc2nnc(S)n2Cc2ccccc2)n1CCc1ccccc1: < 10%
CCn1c(S)nnc1CSc1nc2ccccc2c(=O)n1CCc1ccccc1: < 10%
CSc1nc2ccccc2c(=O)n1CCc1ccccc1: < 10%
COc1ccc(-n2c(S)nnc2CSc2nc3ccccc3c(=O)n2CCc2ccccc2)cc1: < 10%
O=C1c2ccccc2C(=O)N1CCCSc1nc2ccccc2c(=O)n1CCc1ccccc1: < 10%
O=c1c2ccccc2nc(SCc2nnc(S)n2-c2ccccc2)n1CCc1ccccc1: < 10%
O=c1c2ccccc2nc(SCCN2CCOCC2)n1CCc1ccccc1: < 10%
O=c1c2ccccc2nc(SCc2ccc([N+](=O)[O-])cc2)n1CCc1ccccc1: < 10%
O=c1c2ccccc2[nH]c(=S)n1CCc1ccccc1: < 10%
O=c1c2ccccc2nc(SCCN2CCCCC2)n1CCc1ccccc1: 12%
